Hey, just so you know, these numbers are from PubChem BioAssay (NCI).

Tested on: A549 NSCLC
Test: NCI tumour cell line growth inhibition, 48 h
property: TGI

GET /value?item= COc1ccc(P2(=S)OCCOP(=S)(c3ccc(OC)cc3)S2)cc1 (stereo not given) &field=TGI returns > 100 µM

Lab note: measured TGI of COC(=O)CCCC(=O)C1=Nc2ccccc2CN(c2ccc(Cl)cc2)N1 was > 100 µM

response.value for Clc1ccc(Cc2nc3cc(Cl)c(Cl)cc3n2CC2CCCN3CCCCC23)cc1Cl (stereo not given) (field: TGI) = 20 µM

Recorded result, CCOC(=O)c1c(Sc2ccc([N+](=O)[O-])cc2[N+](=O)[O-])nc2c3ccccc3ccn12 , TGI: > 100 µM

Notebook: CC(CN(C)C)C(C#N)(c1ccccc1)c1ccccc1 (stereo not given) , TGI read as > 100 µM

====

Tested on: SK-MEL-5 melanoma
Experiment: NCI tumour cell line growth inhibition, 48 h
property: TGI

// Oc1ccc(OCCOc2ccc(O)cc2)cc1 : TGI value = 4.36 µM

// TGI value for C1CSC2=C(S1)SC1=C(S2)SC(=C2SC3=C(SC4=C(SCCS4)S3)S2)S1 : > 100 µM

The reported value for COC1=CC(=O)c2c(c(-c3csc(C)n3)cn2C)C1=O in terms of TGI is 4.97 µM

Documented TGI of COc1ccc(Cc2c(N)[nH]c(=O)[nH]c2=O)cc1 : > 100 µM

Lab note: CS(=O)(=O)OCOS(C)(=O)=O gave TGI of > 100 µM

Query CN(C)c1nc2nonc2nc1Nc1ccccc1 yields TGI of > 100 µM

The molecule listed as Cc1ccc(O)c(-c2cc(-c3cccc(Br)c3)c(C#N)c(N)n2)c1 has a reported TGI of 60 µM

Looking up [N-]=[N+]=CC(=O)OC1CCOCC1 , I see its TGI listed as > 100 µM

Consider COc1cc(/C=C/c2cc(/C=C/c3ccc(O)c(OC)c3)n(C(=O)Cc3ccccc3)n2)ccc1O . Its measured TGI is 3.17 µM

Measured TGI, CC(C)NC(=O)OCc1c(COC(=O)NC(C)C)c(-c2cc[n+](COC(=O)CC(C)(C)C)cc2)n2c1CCC2 : > 100 µM

Measured TGI of COc1cc2c(c(OC)c1OC)CCNC2C1=C(O)COC1=O (stereo unspecified) : > 100 µM

====

Provide the reported TGI of each item.
Test system: T-47D breast
Assay: NCI tumour cell line growth inhibition, 48 h
*1 amine or outer side, *2 acyl side, *3 side chain or, on linkers, in order; H or OH if unused. Where a SMILES comes first, the peptide text is derived from it. [ ]: non-standard residue; d: D form. The star is where a group is joined. ξ: configuration not given here. X53 = CC(C)C[C@H](N[*:1])C1=N[C@H](C(=O)[*:2])CS1; Ile(3ξ) = CCC(C)[C@H](N)C(=O)O; Allyl(1,1-Me2) = C=CC(C)(C)*

Reported TGI of O=c1[nH]cnc2c1ncn2C1CCC(CO)O1 (centres undefined) : > 1000 µM

Quick note, TGI for CCOC(=O)C1=C(C#N)S(=O)(=O)c2c(oc(C)c2C)N1 landed at > 100 µM

The compound identified as COc1cc(C(=O)/C=C/c2c(-c3cccs3)nc3sccn23)cc(OC)c1OC registered its TGI at 4.71 µM

For reference, reported TGI for COc1ccc(-c2cc(C(=O)N3N=C(c4ccc(N)cc4)CC3c3ccc(Cl)cc3)c3ccccc3n2)cc1 (centres undefined) stands at > 100 µM

Just so you know, measured TGI for CCCCCCCCCCCCCCCCOCC(Cl)CP(=O)(O)OP(=O)(O)OCC1OC(n2cnc3c(N)ncnc32)C(O)C1O (centres undefined) came out at > 100 µM

Recorded TGI (compound COC(=O)N/N=C(/CC1(O)C(=O)Nc2ccc([N+](=O)[O-])cc21)c1ccccc1 (centres undefined) ): > 100 µM

The compound listed as C=CC(C)(C)OC[C@@H]1NC(=O)CNC(=O)[C@@H]2CCCN2C(=O)[C@H](C(C)CC)NC(=O)[C@@H]2CSC(=N2)[C@H](CC(C)C)NC1=O (some centres undefined) (cyclo(GS(Allyl(1,1-Me2))[X53][Ile(3ξ)]P)) shows TGI equal to > 100 µM

Value of TGI reported for the compound Nc1nc(SCc2ccccc2)nc2[nH]ncc12 is 15.6 µM

The reported TGI of the compound O=C(O)Cc1cc(F)ccc1C(=O)O was > 100 µM
